# SYSTEM UNDER TEST: Bile acid receptor (Homo sapiens)
# TEST METHOD NOTES: ATG_FXR_TRANS: Attagene TRANS-FACTORIAL HepG2 Assay for Farnesoid X Receptor (FXR) (AID 2282979);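 further: hits raise reporter mRNA above DMSO so AC50 marks FXR activation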
# RECORDED CONDITIONS: HepG2 Attagene TRANS FXR-GAL4 reporter transcription
Results filed as inconclusive are left out. Active and inactive are the calls of the source. How the source made its calls: active means hit-call score of the fitted dose curve at least 0.9, where 1 is the maximum; inconclusive means response in the unintended direction; inactive means score below 0.9.
Parameter call: string, one of active, inactive

Below are worked cases with known answers.
COC(=O)Nc1cccc(OC(=O)Nc2cccc(C)c2)c1 = inactive
Cc1ccc2nc3sc(=O)sc3nc2c1 = inactive
C1CCC(C2CCCCC2)CC1 = inactive
Nc1ccc(N)cc1 = inactive
[F][Sn]([c]1ccccc1)([c]1ccccc1)[c]1ccccc1 = inactive

Task item: What outcome does the record of this test show for CC(C)CC(C)(c1ccc(O)cc1)c1ccc(O)cc1 ?
Reply: active

Task item: Now consider C[C@@H]1O[C@@H](O[C@H]2C[C@@H](O)[C@]3(CO)[C@H]4[C@H](O)C[C@]5(C)[C@@H](C6=CC(=O)OC6)CC[C@]5(O)[C@@H]4CC[C@]3(O)C2)[C@H](O)[C@H](O)[C@H]1O .
Reply: inactive

Task item: Now consider COC(=O)c1cc(Oc2ccc(Cl)cc2Cl)ccc1[N+](=O)[O-] .
Reply: inactive

====

# TEST METHOD NOTES: CCTE_Shafer_MEA_dev_network_spike_duration_std: CCTE's Neural Network Formation Assay for Standard Deviation of Network Spike Duration, Shafer Lab (AID 2284052);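 further: area under curve of spike duration SD across recording days 5 to 12; hits are decreases in network spike duration SD versus DMSO vehicle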
Active and inactive are the calls of the source. Rule for the calls: active = hit-call score of the fitted dose curve at least 0.9, where 1 is the maximum; inactive = score below 0.9.
Parameter call: string, one of true (1) (active), false (0) (inactive)

C=CC(F)(C(F)(F)F)C(F)(F)C(F)(F)F (centres undefined) = false (0)
CS(=O)(=O)c1ccc(C(=O)C2C(=O)CCCC2=O)c(Cl)c1COCC(F)(F)F = false (0)
C=CCOC(F)(C(F)(F)F)C(F)(F)F = false (0)
CNC(=O)CSP(=O)(OC)OC = false (0)
CC(C)[C@@H](Nc1ccc(C(F)(F)F)cc1Cl)C(=O)OC(C#N)c1cccc(Oc2ccccc2)c1 (some centres undefined) = false (0)
O=S(=O)(F)C(F)(F)C(F)(F)C(F)(F)C(F)(F)F = false (0)
CC1(C)[C@H](C(=O)O[C@H](C#N)c2cccc(Oc3ccccc3)c2)[C@@H]1/C=C(\Cl)C(F)(F)F = false (0)
CCOCn1c(-c2ccc(Cl)cc2)c(C#N)c(Br)c1C(F)(F)F = true (1)

Switching to the query record.
Task item: What outcome does the record of this test show for Cc1ccccc1OP(=O)(Oc1ccccc1C)Oc1ccccc1C ?
Reply: false (0)

====

# Read-out: Urokinase-type plasminogen activator receptor (uPAR), PLAUR (gene 5329)
# TEST METHOD NOTES: BSK_4H_uPAR: BioMAP Diversity Plus: 4H Assay for Urokinase-type plasminogen activator receptor (uPAR) Biomarker Activity (AID 2283030)
# RECORDED CONDITIONS: primary human endothelial cells (HUVEC); actives raise or lower the signal
Active and inactive are the calls of the source. Rule for the calls: active = hit-call score of the fitted dose curve at least 0.9, where 1 is the maximum; inactive = score below 0.9.
ASSAY READOUT: AC50

Here are 5 compounds together with their reported answers.
Nc1c(Oc2ccccc2)cc(O)c2c1C(=O)c1ccccc1C2=O = inactive
O=S(=O)(c1ccc(Cl)cc1)c1cc(Cl)c(Cl)cc1Cl = inactive
O=c1oc2ccccc2c(O)c1C(CC(O)c1ccc(-c2ccc(Br)cc2)cc1)c1ccccc1 (centres undefined) = 6.9 µM (active)
Nc1ccc(N)cc1 = inactive
[Cl][Sn]([c]1ccccc1)([c]1ccccc1)[c]1ccccc1 = 0.205 µM (active)

Attention now shifts to the item below.
Task item: So what's the measured AC50 for this one? C[C@]12CC[C@@H](O)C[C@@H]1CC[C@@H]1[C@@H]2CC[C@]2(C)C(=O)CC[C@@H]12
Reply: inactive
